system: MDA-MB-231; assay: NCI tumour cell line growth inhibition, 48 h
Calls of active or inactive are those of the source. No stated cut-off is given here; in the data, active = GI50 up to about 1.1 µM and inactive = higher.
Hi! Could you answer with just one of these? label 1 (active), label 0 (inactive)

Q: Identify the outcome logged in this assay for the compound shown: `CCOC(CCNCC(OCC)OCC)OCC`
Ans: label 0

Q: Identify the outcome logged in this assay for the compound shown: `COC(=O)c1c(O)ccc2c1c1c(n2Cc2ccccc2OC)C(=O)c2ccccc2C1`
Ans: label 0

Q: Identify the outcome logged in this assay for the compound shown: `ClCCCSSCCCCl`
Ans: label 0

Q: Identify the outcome logged in this assay for the compound shown: `COc1ccc(Oc2nc3ccc(C(F)(F)F)cc3nc2-c2ccccc2)cc1`
Ans: label 0

Q: Identify the outcome logged in this assay for the compound shown: `Cc1nc2c(=O)n3c4c(cccc4c2o1)CCC3`
Ans: label 0

Q: Identify the outcome logged in this assay for the compound shown: `CC[C@](O)(C(=O)O)c1cc2n(c(=O)c1CO)Cc1cc3ccccc3nc1-2`
Ans: label 1

Q: Identify the outcome logged in this assay for the compound shown: `c1ccc2c(c1)Oc1cccc3cccc-2c13`
Ans: label 0

Q: Identify the outcome logged in this assay for the compound shown: COc1ccc(C(CC(=O)c2ccc(O)cc2)C(C(=O)c2ccc(O)cc2)C(c2ccc(OC)cc2)C2C(=O)NC(=S)NC2=O)cc1 (stereo not drawn)
Ans: label 0

Q: Identify the outcome logged in this assay for the compound shown: c1ccc2c(c1)-c1nc3ccccc3cc1C2N1CCOCC1 (stereo not drawn)
Ans: label 0

Q: Identify the outcome logged in this assay for the compound shown: `CCN(CC)c1ccc2cc(-c3nc4ccccc4n3C)c(=O)oc2c1`
Ans: label 1

Q: Identify the outcome logged in this assay for the compound shown: `CCN(CCCN(CC)C(=O)Nc1ccccc1)C(=O)Nc1ccccc1`
Ans: label 0

Q: Identify the outcome logged in this assay for the compound shown: CC1C(=O)N(c2ccccc2)NC12CCCc1ccccc12 (stereo not drawn)
Ans: label 0

Q: Identify the outcome logged in this assay for the compound shown: `COc1ccc(-n2c(=O)n(-c3ccccc3)c(=O)n2-c2ccc(OC)cc2)cc1`
Ans: label 0

Q: Identify the outcome logged in this assay for the compound shown: CC1CN=C(N(C(=O)Nc2ccccc2)c2ccccc2)S1 (stereo not drawn)
Ans: label 0

Q: Identify the outcome logged in this assay for the compound shown: `Cc1cc(S(=O)(=O)/N=C2\NCCN2Cc2ccccc2)c(S)cc1Cl`
Ans: label 0

Q: Identify the outcome logged in this assay for the compound shown: `Cn1ncc2c(NCc3ccccc3)ncnc21`
Ans: label 0

Q: Identify the outcome logged in this assay for the compound shown: `O=[N+]([O-])c1ccc(-n2nc3ccc4c(no[n+]4[O-])c3n2)cc1`
Ans: label 0

Q: Identify the outcome logged in this assay for the compound shown: CC(CC(C)[C@H]1CCC2[C@H]3C(CC(=O)[C@@]21C)[C@@]1(C)CCC(O)C[C@H]1C[C@@H]3O)C(=O)O (stereo partly drawn)
Ans: label 0

Q: Identify the outcome logged in this assay for the compound shown: `CCOC(=O)c1sc(N)nc1N1CCCC1`
Ans: label 0

Q: Identify the outcome logged in this assay for the compound shown: C=C1C(=O)C23C(O)CC4C(C)(C)CCC(O)C4(C)C2CC(OC(C)=O)C1[C@H]3O (stereo partly drawn)
Ans: label 0

Q: Identify the outcome logged in this assay for the compound shown: `CN(C)CCCN1CCC2(CCC(C(C)(C)C)CC2)CC1`
Ans: label 0

Q: Identify the outcome logged in this assay for the compound shown: `CC(=O)Nc1ccc(-c2nc3ccccc3s2)cc1I`
Ans: label 0

Q: Identify the outcome logged in this assay for the compound shown: `CCCCc1ccc(Nc2nc(Cl)c3c(ncn3COCCOC(C)=O)n2)cc1`
Ans: label 0
